Where do these numbers come from? They come from PubChem BioAssay.

- assay.overview: nonspecific calcium rise without TRPC4 – cell-based, HEK293 mu-opioid receptor line, counter-screen for TRPC4 activator project, confirmation (AID 449723);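 also: counter screen cells carry the mu-opioid receptor alone and lack TRPC4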
- applied.conditions: HEK293 mu-opioid cells, Fluo-4 calcium fluorescence, at 10 µM
Calls of active or inactive are those of the source.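 The calls were made as follows: active = hit in primary screen, with calcium signal over 5 SD above buffer well mean in both duplicates; inactive = the rest.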
Outcome field: choose from active, inactive

Recorded results for 9 compounds are shown here.
>>> discrete_label("Cc1ccc(NC(=O)c2cc(N3C(=O)C=CC3=O)ccc2N2CCOCC2)cc1")
"inactive"
>>> discrete_label("CN(C)CCOc1ccc2ccccc2c1")
"inactive"
>>> discrete_label("O=[N+]([O-])c1cc(C(F)(F)F)ccc1N1CCCNCC1")
"inactive"
>>> discrete_label("CCCCn1c(NC(=O)c2ccccc2)nc2ccccc21")
"inactive"
>>> discrete_label("Cc1cc2nc3s/c(=C/c4ccc(-c5ccccc5C(=O)O)o4)c(=O)n3c2cc1C")
"active"
>>> discrete_label("CCOc1ccccc1NC(=O)CN(c1ccc(OC)cc1)S(=O)(=O)c1c(C)[nH]c(=O)[nH]c1=O")
"inactive"
>>> discrete_label("CCOC(=O)c1c(NC(=O)COC(=O)CCOc2ccc(OCC)cc2)sc(C(=O)N(C)C)c1C")
"inactive"
>>> discrete_label("O=C(COC(=O)Cn1cnc2ccccc2c1=O)Nc1ccccc1Sc1ccc(Cl)cc1")
"inactive"
>>> discrete_label("COc1cc(CNCCCN2CCOCC2)cc(Br)c1OCc1ccc(Cl)cc1")
"inactive"

Next, consider the following compound.
q: Please state the recorded outcome for this compound: O=S(=O)(Cc1ccccc1)N1CCC(c2nc(-c3cccs3)no2)CC1
a: inactive

----------
- system.name: Short transient receptor potential channel 6 (Mus musculus)
- assay.overview: TRPC6 opening by TRPC4 activator hits – cell-based, HEK293, membrane potential dye, duplicate, selectivity assay for TRPC4 activator project, confirmation (AID 434950);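 also: 0% = buffer only wells and 100% = acetylcholine maximal-effect wells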
- applied.conditions: HEK293 TRPC6, membrane potential fluorescence, at 10 µM; hits give high values
Activity calls are given as the source filed them.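 Rule for the calls: active = membrane potential signal rise above negative control mean plus 3 SD in both duplicates, also active in the earlier TRPC4 screen; inactive = the rest.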
property.label: activation

>>> recorded_result("COc1ccccc1/C=C/CN1CCCC(CCC(=O)NCc2ccccc2F)C1 (stereo not given)")
"44% (active)"
>>> recorded_result("Cc1cc2nc3s/c(=C/c4ccc(-c5ccccc5C(=O)O)o4)c(=O)n3c2cc1C")
"675% (active)"
>>> recorded_result("Cc1ccc(NC(=O)CN2CCc3ccccc3C2)cc1S(=O)(=O)N1CCOCC1")
"30.5% (active)"
>>> recorded_result("CC(=O)c1c(C)nn(CC(=O)NC2CCCN(Cc3ccc(CC(C)C)cc3)C2)c1C (stereo not given)")
"34.5% (active)"

q: Form field: activation recorded for COCCn1nnnc1C(c1cc2ccc(OC)cc2[nH]c1=O)N1CCN(C2CCCCC2)CC1 (stereo not given) with Short transient receptor potential channel 6 (Mus musculus) (enter value)
a: 37.5% (active)

q: Form field: activation recorded for CCOc1ccccc1N(CC(=O)N1CCOCC1)S(=O)(=O)c1ccc(SC)cc1 with Short transient receptor potential channel 6 (Mus musculus) (enter value)
a: 89% (active)

q: Form field: activation recorded for COc1cc2c(cc1OC)C(C)N(C(=O)C(NC(=O)c1ccccc1)C(C)C)CC2 (stereo not given) with Short transient receptor potential channel 6 (Mus musculus) (enter value)
a: 31% (active)

q: Form field: activation recorded for Cc1ccc(-n2cc(CNC(C)c3cnn(C)c3)c(-c3ccc(F)cc3)n2)cc1 (stereo not given) with Short transient receptor potential channel 6 (Mus musculus) (enter value)
a: 33% (active)

q: Form field: activation recorded for COc1cccc(C(=O)OC2CCCN(C)C2)c1 (stereo not given) with Short transient receptor potential channel 6 (Mus musculus) (enter value)
a: 43% (active)

q: Form field: activation recorded for COc1ccc(CN2CCC(n3nccc3NC(=O)CCc3ccccc3)CC2)c(C)c1C with Short transient receptor potential channel 6 (Mus musculus) (enter value)
a: 72% (active)

----------
- Test system: TRPC4 (mouse), co-expressed with 5HT1a in HEK293
- assay.overview: enhancement of serotonin-evoked TRPC4 response – cell-based, second counter screen, HEK293 TRPC4/5HT1a, Fluo-4, counter-screen for TRPC4 potentiator project, confirmation (AID 434979)
- applied.conditions: Fluo-4 calcium flux, at 10 µM, serotonin added at its EC20 dose; hits give high values
Calls of active or inactive are those of the source.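 How the source made its calls: active means signal rise over 3 SD above mean of control wells given weak agonist, in both repeats and first screen; inactive means the rest.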
property.label: potentiation

// known answers, use as guide
>>> recorded_result("O=C(CC1C(=O)NCCN1Cc1ccc(-c2ccccc2)cc1)NCCc1ccccn1 (stereo unspecified)")
"inactive"
>>> recorded_result("CNCCOc1ccc(Cl)c(Cl)c1")
"24% (active)"
>>> recorded_result("COc1ccc(/C=C2\\SC(=S)N(C(Cc3ccccc3)C(=O)O)C2=O)cc1 (stereo unspecified)")
"inactive"
>>> recorded_result("CCCCn1c(SCC(=O)OCC)nc2c(sc(=S)n2-c2ccccc2OC)c1=O")
"inactive"
>>> recorded_result("C=CCn1c(SCCN2CCCCC2)nc2c1c(=O)[nH]c(=O)n2C")
"20% (active)"
>>> recorded_result("COC(=O)c1ccccc1NC(=O)c1cnn2cccnc12")
"40.2% (active)"
>>> recorded_result("CCCN1CCN(C(=S)NCc2ccc(Cl)cc2)CC1")
"19.3% (active)"
>>> recorded_result("CCOC(=O)Cc1csc(NC(=O)NC2(C(F)(F)F)Oc3cc(Cl)c(Cl)cc3O2)n1")
"inactive"

q: Return reported potentiation; argument: Cc1ccc(Cl)c(OCCN2CCCC(C)C2)c1 (stereo unspecified)
a: 7.06% (active)

q: Return reported potentiation; argument: COc1cccc(Oc2cncnc2-c2ccc(OC)cc2O)c1
a: inactive

q: Return reported potentiation; argument: CC(C)(C)NC(=S)N/N=C\c1ccc(-c2ccc([N+](=O)[O-])cc2)o1
a: 15.4% (active)

----------
- system.name: Short transient receptor potential channel 6 (Mus musculus) (UniProt Q61143)
- Sequence (Q61143 whole entry, looked up): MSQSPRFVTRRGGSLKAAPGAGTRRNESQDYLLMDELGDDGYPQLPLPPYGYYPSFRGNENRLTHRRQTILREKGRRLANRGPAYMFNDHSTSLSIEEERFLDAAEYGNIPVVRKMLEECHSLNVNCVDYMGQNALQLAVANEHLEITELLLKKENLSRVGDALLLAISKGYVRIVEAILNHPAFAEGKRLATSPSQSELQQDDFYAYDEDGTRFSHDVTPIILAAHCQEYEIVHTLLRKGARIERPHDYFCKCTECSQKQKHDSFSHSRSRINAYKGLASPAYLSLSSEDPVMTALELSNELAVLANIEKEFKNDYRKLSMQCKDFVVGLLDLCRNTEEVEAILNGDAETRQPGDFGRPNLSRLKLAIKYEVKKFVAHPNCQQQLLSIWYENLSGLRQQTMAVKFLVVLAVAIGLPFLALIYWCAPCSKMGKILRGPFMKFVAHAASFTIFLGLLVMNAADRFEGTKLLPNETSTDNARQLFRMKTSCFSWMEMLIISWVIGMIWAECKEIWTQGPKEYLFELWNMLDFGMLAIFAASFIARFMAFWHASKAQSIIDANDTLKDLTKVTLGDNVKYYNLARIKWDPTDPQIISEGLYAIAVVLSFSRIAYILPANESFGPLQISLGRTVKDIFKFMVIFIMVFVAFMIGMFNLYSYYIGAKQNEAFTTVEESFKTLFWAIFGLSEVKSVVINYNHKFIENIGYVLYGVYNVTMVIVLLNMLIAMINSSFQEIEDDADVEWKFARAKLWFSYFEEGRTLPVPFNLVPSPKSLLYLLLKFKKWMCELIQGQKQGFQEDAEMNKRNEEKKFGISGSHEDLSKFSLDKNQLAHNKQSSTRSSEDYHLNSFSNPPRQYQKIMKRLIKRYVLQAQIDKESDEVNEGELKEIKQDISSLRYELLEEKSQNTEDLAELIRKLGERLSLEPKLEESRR
- assay.overview: positive modulators of mouse TRPC6 channel – HEK293 cells, membrane potential dye, duplicate, selectivity assay for TRPC4 potentiator project, confirmation (AID 434952)
- applied.conditions: HEK293 TRPC6, membrane potential dye fluorescence, at 10 µM, maximal acetylcholine added after compound; hits give high values
Calls of active or inactive are those of the source.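 Rule for the calls: active = compound raising the membrane signal above positive-control mean plus 3 SD in both repeats, and a primary screen hit; inactive = the rest.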
property.label: potentiation, percent of control

// known answers, use as guide
>>> recorded_result("Clc1ccc2[nH]c3c(c2c1)CNCC3")
"inactive"
>>> recorded_result("CN(CCNC(=O)c1ccc(/C=N/O)nc1)Cc1ccccc1")
"inactive"
>>> recorded_result("Cc1ccc(Nc2cc(C)nc3ccc(C)cc23)cc1")
"inactive"
>>> recorded_result("Cc1cc(-c2sccc2C)nc(-n2cccc2)n1")
"inactive"

q: Form field: potentiation, percent of control recorded for CNC(=O)COc1ccc2oc3c(c2c1)CCCC3 with Short transient receptor potential channel 6 (Mus musculus) (UniProt Q61143) (enter value)
a: inactive

q: Form field: potentiation, percent of control recorded for CN(Cc1ccco1)C(=O)Cn1ncc2c([nH]c3ccccc32)c1=O with Short transient receptor potential channel 6 (Mus musculus) (UniProt Q61143) (enter value)
a: inactive

q: Form field: potentiation, percent of control recorded for O=C(CSc1nnc(-c2ccccc2)o1)c1ccc2c(c1)OCCO2 with Short transient receptor potential channel 6 (Mus musculus) (UniProt Q61143) (enter value)
a: inactive

q: Form field: potentiation, percent of control recorded for OCCNc1nc2ccccc2n1CCN1CCCCC1 with Short transient receptor potential channel 6 (Mus musculus) (UniProt Q61143) (enter value)
a: inactive

q: Form field: potentiation, percent of control recorded for Cn1c(-c2ccc(F)cc2)cnc1NCc1ccc(F)cc1 with Short transient receptor potential channel 6 (Mus musculus) (UniProt Q61143) (enter value)
a: inactive

q: Form field: potentiation, percent of control recorded for Cc1cccc(CCN(C(=O)c2snc(C(N)=O)c2N)C(C(=O)NCC2CCCO2)c2ccc(F)cc2)c1 (centres undefined) with Short transient receptor potential channel 6 (Mus musculus) (UniProt Q61143) (enter value)
a: inactive

q: Form field: potentiation, percent of control recorded for CCOc1ccc2nc(N3CCCC(C(=O)NCC4CCCO4)C3)sc2c1 (centres undefined) with Short transient receptor potential channel 6 (Mus musculus) (UniProt Q61143) (enter value)
a: inactive

----------
- System: TRPC4 beta (transient receptor potential cation channel C4), mouse
- assay.overview: TRPC4 cation channel opening, retest – cell-based, Fluo4 calcium, HEK293 TRPC4beta/mu-opioid, duplicates, 10 µM, confirmation (AID 2426)
- applied.conditions: Fluo4 calcium fluorescence, at 10 µM
Active and inactive are the calls of the source.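 The calls were made as follows: active = fluorescence ratio normalized to control raised more than 50% in primary screen plus both repeat runs; inactive = the rest.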
Outcome field: choose from t for active, f for inactive

Recorded results for 5 molecules are shown here.
>>> discrete_label("Cc1[nH]n(C)c(=O)c1C(=O)c1c(-c2c(Cl)cccc2Cl)noc1C")
"f"
>>> discrete_label("Cc1nn(-c2cccc(Cl)c2)c2nc(C(F)(F)F)[nH]c(=O)c12")
"f"
>>> discrete_label("COc1cccc(C(=O)C2CCCN(Cc3cccn3-c3ccccn3)C2)c1 (stereo not drawn)")
"f"
>>> discrete_label("Cc1cc(Cl)cc(Cl)c1OCCCCN(C)C")
"f"
>>> discrete_label("COc1ccc(C(=O)CCC(=O)Nc2cccc(Cl)c2)cc1")
"f"

q: Please state the recorded outcome for this molecule: CC1CC(C)CN(CCCNC(=O)c2csc3c2CCCCC3)C1 (stereo not drawn)
a: t

q: Please state the recorded outcome for this molecule: COc1ccc(OCCN(C)Cc2c(O)ccc3ccccc23)cc1
a: f

q: Please state the recorded outcome for this molecule: O=C(Nc1ccccc1)C1=C[C@H](C2CCCCC2)C[C@H](OCc2ccc(CO)cc2)O1
a: f

q: Please state the recorded outcome for this molecule: CCN(CC)c1nc2ccccc2c(N)c1-c1ccccc1
a: f

q: Please state the recorded outcome for this molecule: Cc1nc2ccccc2n1CCOc1ccc(F)cc1
a: f

q: Please state the recorded outcome for this molecule: CCC(=O)NC(C)C(c1cccs1)N1CCN(c2ccccc2)CC1 (stereo not drawn)
a: f

q: Please state the recorded outcome for this molecule: Cc1ccc(NC(=O)Nc2cccc([N+](=O)[O-])c2)nc1
a: f

q: Please state the recorded outcome for this molecule: O=C(NCCCN1CCN(c2cccc(Cl)c2)CC1)C1CCC(=O)N1Cc1ccccc1Cl (stereo not drawn)
a: f

q: Please state the recorded outcome for this molecule: COc1ccc(/C=N/NC(=O)c2ccc(F)cc2)cc1CN1CCc2cc(OC)c(OC)cc2C1C (stereo not drawn)
a: f

q: Please state the recorded outcome for this molecule: CC(C)c1nc(N2CCOCC2)c(C#N)c2c1CCCC2
a: f

q: Please state the recorded outcome for this molecule: O=C(NCc1ccccc1)C1=C[C@H](c2ccc(C(F)(F)F)cc2)C[C@H](OCc2ccc(CO)cc2)O1
a: f

q: Please state the recorded outcome for this molecule: CCCn1c(=N)n(CC(=O)C(C)(C)C)c2ccccc21
a: f

q: Please state the recorded outcome for this molecule: O=C1/C(=C\c2cc([N+](=O)[O-])ccc2O)SC(=S)N1Cc1ccc(Cl)cc1
a: t
